Item-by-item account of thermal stability score
system: HeLa Kyoto; assay: thermal stability score vs G1/S (z-score of summed log2 fold changes over temperatures); higher = more thermally stable than in G1/S; conditions: cell cycle stage: mitosis;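 further: synchronized HeLa Kyoto cells, proteins quantified by TMT10plex mass spectrometry, three biological replicates, mitosis taken 0.5 h after nocodazole release, G1/S directly after double thymidine block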

Past entries and their recorded results:
seq	reading
MRKPDSKIVLLGDMNVGKTSLLQRYMERRFPDTVSTVGGAFYLKQWRSYNISIWDTAGREQFHGLGSMYCRGAAAIILTYDVNHRQSLVELEDRFLGLTDTASKDCLFAIVGNKVDLTEEGALAGQEKEECSPNMDAGDRVSPRAPKQVQLEDAVALYKKILKYKMLDEQDVPAAEQMCFETSAKTGYNVDLLFETLFDLVVPMILQQRAERPSHTVDISSHKPPKRTRSGCCA [RAB20]	1.44
MAQFVRNLVEKTPALVNAAVTYSKPRLATFWYYAKVELVPPTPAEIPRAIQSLKKIVNSAQTGSFKQLTVKEAVLNGLVATEVLMWFYVGEIIGKRGIIGYDV [ATP5L]	-2.02
MVGYDPKPDGRNNTKFQVAVAGSVSGLVTRALISPFDVIKIRFQLQHERLSRSDPSAKYHGILQASRQILQEEGPTAFWKGHVPAQILSIGYGAVQFLSFEMLTELVHRGSVYDAREFSVHFVCGGLAACMATLTVHPVDVLRTRFAAQGEPKVYNTLRHAVGTMYRSEGPQVFYKGLAPTLIAIFPYAGLQFSCYSSLKHLYKWAIPAEGKKNENLQNLLCGSGAGVISKTLTYPLDLFKKRLQVGGFEHARAAFGQVRRYKGLMDCAKQVLQKEGALGFFKGLSPSLLKAALSTGFMFFSYEFFCNVFHCMNRTASQR [SLC25A19]	-1.27

Give the reported thermal stability score for this sequence. MGVTCVSQMPVAEGKSVQQTVELLTRKLEMLGAEKQGTFCVDCETYHTAASTLGSQGQTGKLMYVMHNSEYPLSCFALFENGPCLIADTNFDVLMVKLKGFFQSAKASKIETRGTRYQYCDFLVKVGTVTMGPSARGISVEVEYGPCVVASDCWSLLLEFLQSFLGSHTPGAPAVFGNRHDAVYGPADTMVQYMELFNKIRKQQQVPVAGIR [MED20]
-0.494

Look up and report measured thermal stability score for this entry: MEQLSSANTRFALDLFLALSENNPAGNIFISPFSISSAMAMVFLGTRGNTAAQLSKTFHFNTVEEVHSRFQSLNADINKRGASYILKLANRLYGEKTYNFLPEFLVSTQKTYGADLASVDFQHASEDARKTINQWVKGQTEGKIPELLASGMVDNMTKLVLVNAIYFKGNWKDKFMKEATTNAPFRLNKKDRKTVKMMYQKKKFAYGYIEDLKCRVLELPYQGEELSMVILLPDDIEDESTGLKKIEEQLTLEKLHEWTKPENLDFIEVNVSLPRFKLEESYTLNSDLARLGVQDLFNSSKADLSGMSGARDIFISKIVHKSFVEVNEEGTEAAAATAGIATFCMLMPEENFTADHPFLFFIRHNSSGSILFLGRFSSP [SERPINB1]
-2.02

Tell me its thermal stability score given MAALTLRGVRELLKRVDLATVPRRHRYKKKWAATEPKFPAVRLALQNFDMTYSVQFGDLWPSIRVSLLSEQKYGALVNNFAAWDHVSAKLEQLSAKDFVNEAISHWELQSEGGQSAAPSPASWACSPNLRCFTFDRGDISRFPPARPGSLGVMEYYLMDAASLLPVLALGLQPGDIVLDLCAAPGGKTLALLQTGCCRNLAANDLSPSRIARLQKILHSYVPEEIRDGNQVRVTSWDGRKWGELEGDTYDRVLVDVPCTTDRHSLHEEENNIFKRSRKKERQILPVLQVQLLAAGLLATKPGGHVVYSTCSLSHLQNEYVVQGAIELLANQYSIQVQVEDLTHFRRVFMDTFCFFSSCQVGELVIPNLMANFGPMYFCKMRRLT [NSUN4] as the entry.
0.044
